assay.endpoint: melting point

Need melting point of CC(CSC(=O)c1ccccc1)C(=O)N1CC(Oc2ccc(CC3Nc4cc(C(F)(F)F)c(S(N)(=O)=O)cc4S(=O)(=O)N3)cc2)CC1C(=O)O (stereo unspecified) , thanks.
170 to 182 °C

Then O=C1NCCN1CC#CCN1CCCC1 ?
71 to 75 °C

Then C=CCC1(C(=O)NCC)c2ccccc2Oc2ccccc21 ?
111 to 112 °C

Then CNC(=O)Oc1cccc(C2CCCN2C(=O)c2ccccc2)c1 (stereo unspecified) ?
117 to 121 °C

Then C(=C\c1nc(COc2ccc(CCn3cncn3)cc2)co1)/c1ccccc1 ?
136 to 137 °C

Then CC1(C)CCC(C)(C)c2cc(C#Cc3ccc(S(C)(=O)=O)cc3)ccc21 ?
153 to 155 °C

---

assay.endpoint: melting point

Need melting point of Cc1noc2cc3c(cc12)C1(CO3)C(=O)N(Cc2ncccc2F)c2ccccc21 (stereo unspecified) , thanks.
167 to 169 °C

Then Cc1nn(C)c(NCC(C)(C)C)c1N ?
65 to 69 °C

Then COc1nc(Cl)cnc1N ?
102 to 103 °C

Then COc1ccc(-c2ccccc2)cc1NC(=S)c1ncc[nH]1 ?
223 to 226 °C

Then NNC(=O)c1cc2c(Oc3ccc(Cl)cc3)cncc2s1 ?
197 to 199 °C

Then CCC12CCC(=O)CC1CCc1cc(O)ccc12 (stereo unspecified) ?
168 to 170 °C

Then COC1=C(OC)C(=O)C(Cl)=C(C)C1=O ?
66 to 68 °C

Then COC(=O)Cn1cnc2c(OCc3ccccc3)ncnc21 ?
112 to 115 °C

Then CC(CCNC(=O)c1ccc(Cl)nc1)n1ccnc1 (stereo unspecified) ?
137 to 139 °C

Then CS(=O)(=O)c1ccc(-c2cnn(-c3cccc(Br)c3)c(=O)c2Oc2ccc(F)cc2)cc1 ?
208 to 210 °C

Then O=C1CCC(N2Cc3cc(CNC(=O)Nc4c(Cl)cccc4Cl)ccc3C2=O)C(=O)N1 (stereo unspecified) ?
238 to 240 °C

Then CCOc1ccc(N2CC(C(=O)OC)CC2=O)cc1 (stereo unspecified) ?
67 to 69 °C

Then O=C(Nc1cccc2cc(C(=O)O)[nH]c12)c1cc(OCc2ccccc2F)cc(OCc2ccccc2F)c1 ?
271 to 273 °C

Then CC(=O)NC[C@H]1CN(c2ccc(N3CCC4(CC3)NCCS4)c(F)c2)C(=O)O1 ?
150 to 152 °C

Then Clc1ccc2nc(N3CCN(c4ncccc4Cl)CC3)[nH]c2c1 ?
214 to 215 °C

Then Cc1cccc2c1N(C)C(=O)C(NC(=O)Nc1cccc(-c3nnn[nH]3)c1)N=C2C1CCCCC1 (stereo unspecified) ?
199 to 201 °C

Then CC(C)(C)c1cc(C(c2ccc(F)cc2)N2CCCCC2)c(O)c(C(C)(C)C)c1 (stereo unspecified) ?
135 to 136 °C

Then COc1ccc2ncc(CO)c(O)c2c1 ?
327 to 334 °C

Then Cc1sc(C2=NOC(c3cc(Cl)cc(Cl)c3)(C(F)(F)F)C2)cc1Br (stereo unspecified) ?
110 to 112 °C

Then COCCC1CCCCN1C(=O)C=Cc1c(-c2ccccc2)nn2ccccc12 (stereo unspecified) ?
139 to 140 °C

Then C=CCN(CC=C)C(=O)n1cnc(S(=O)C(C)C)n1 (stereo unspecified) ?
32 to 34 °C
